Tested on: Fusarium proliferatum
Test: Antimicrobial activity against Fusarium proliferatum at 3 uM after 72 hrs by microtiter assay
Assay type: functional
measured.property: inhibition at 3 µM (%)
Numeric answer only, unit % assumed.

The cases that follow already have their inhibition at 3 µM on record.
| smiles.notation | measured.property | test.value |
| --- | --- | --- |
| C/C=C1\NC(=O)[C@H](Cc2ccccc2)NC(=O)[C@@H](C(C)C)NC(=O)[C@@H]([C@@H](C)CC)NC(=O)[C@H](NC(=O)[C@H](NC(=O)[C@H](CCCN)NC(=O)[C@H]2CCCN2C(=O)[C@H](NC(=O)[C@@H](NC(=O)[C@@H](NC(=O)[C@H](NC(=O)CCCC(C)C)C(C)C)C(C)=O)C(C)C)C(C)C)[C@@H](C)CC)[C@@H](C)OC(=O)[C@H](C(C)C)NC1=O | inhibition at 3 µM | 0 |
| C/C=C1\NC(=O)[C@H](Cc2ccccc2)NC(=O)[C@@H](C(C)C)NC(=O)[C@@H]([C@@H](C)CC)NC(=O)[C@H](NC(=O)[C@H](NC(=O)[C@H](CCCNCc2ccc(F)cc2)NC(=O)[C@H]2CCCN2C(=O)[C@H](NC(=O)[C@@H](NC(=O)[C@@H](NC(=O)[C@H](NC(=O)CCCC(C)C)C(C)C)[C@@H](C)O)C(C)C)C(C)C)[C@@H](C)CC)[C@@H](C)OC(=O)[C@H](C(C)C)NC1=O | inhibition at 3 µM | 0 |

Now consider the entry below.
Recorded inhibition at 3 µM of C/C=C1\NC(=O)[C@H](Cc2ccccc2)NC(=O)[C@@H](C(C)C)NC(=O)[C@@H]([C@@H](C)CC)NC(=O)[C@H](NC(=O)[C@H](NC(=O)[C@H](CCCNCc2cccs2)NC(=O)[C@H]2CCCN2C(=O)[C@H](NC(=O)[C@@H](NC(=O)[C@@H](NC(=O)[C@H](NC(=O)CCCC(C)C)C(C)C)[C@@H](C)O)C(C)C)C(C)C)[C@@H](C)CC)[C@@H](C)OC(=O)[C@H](C(C)C)NC1=O , please.
0
